- Procedure Details: chemical genetic growth profiling, strain panel (AID 1159580);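 further: tested at 20 µM; growth read once vehicle control cultures reached saturation at 30 °C; 1 = growth at the plate median or of vehicle wells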
- Measurement Setup: S. cerevisiae deletion strains, growth OD, locus YJL129C, strain trk1, hits give low values
The campaign covered roughly 5,500 compounds. About 2,000 (36%) were called active. About 18% were inconclusive and are not listed. Some of the results follow.
Field 'label' (enum: Condition met / Condition not met). Set to Condition met when normalized growth is strictly under 1; else Condition not met.

CC1(C)C(C(Cl)Cl)C2(Cl)C(Cl)C(Cl)C1(Cl)C2(Cl)Cl (configuration not stated)    Condition met
CN(C)CCOC(C)(c1ccccc1)c1ccccn1 (configuration not stated)    Condition not met
CN/C(=C\[N+](=O)[O-])NCCSCc1ccc(CN(C)C)o1    Condition met
CC(=O)O[C@@H]1C[C@@]2(C)[C@H](c3ccoc3)C[C@H]3O[C@]32[C@]2(C)C(=O)C(O)=C3C(C)(C)C(=O)C=C[C@]3(C)C12 (some centres not stated)    Condition met

## Task I'd appreciate it if you could check whether NCCCC[C@H](N[C@@H](CCc1ccccc1)C(=O)O)C(=O)N1CCC[C@H]1C(=O)O has normalized growth smaller than 1.
## Result Condition not met

## Task normalized growth under 1? Item: O=C(O)CCCCC1CCSS1 (configuration not stated)
## Result Condition met

## Task Field: below-cutoff. Rule: recorded normalized growth strictly less than 1. Subject: C=CCC1(C(C)CCC)C(=O)N=C(S)NC1=O (configuration not stated)
## Result Condition met

---

# reported normalized growth; entries follow
- Procedure Details: chemical genetic growth profiling, strain panel (AID 1159580)
- Measurement Setup: S. cerevisiae deletion strains, growth OD, locus YBR229C, strain ROT2, hits give low values
In all, about 5,500 compounds went through this assay and about 2,000 (36%) were called active. Not shown: some 18% with an inconclusive outcome. The list shows a part of the results.
Keep it simple and answer with nothing but the number.

NC(=S)N/N=C\c1cc(F)cc(F)c1    1.01

## Task Identify normalized growth associated with the molecule CCCC(C)C1(CC)C(=O)NC(=O)NC1=O (configuration not stated)
## Result 1.01

## Task Provide one value: measured normalized growth of C=CCC1(C(C)CCC)C(=O)N=C(S)NC1=O (configuration not stated)
## Result 0.994

## Task Determine from records and report normalized growth for CC(=O)NCCCCCC(=O)O
## Result 1.01

## Task Write down normalized growth measured for item CCCC(C)C1(CC)C(=O)N=C(S)NC1=O (configuration not stated)
## Result 1.01

## Task Give normalized growth for NC(=S)N/N=C\c1ccc(F)c(Cl)c1
## Result 0.995

## Task Query normalized growth for Cc1c(Cl)cccc1NC(=S)Nc1ccc(Cl)cc1C(=O)c1ccccc1
## Result 0.991

## Task State its normalized growth for this molecule: O=C(NNC(=S)Nc1ccc(F)cc1)c1ccccc1Cl
## Result 1

## Task Please look at this molecule and report its normalized growth: Nc1ccc(S(=O)(=O)Nc2ccc(Cl)nn2)cc1
## Result 0.995

## Task Annotate the molecule CC(=O)O[C@@H]1CC2C(C)(C)C(=O)CC[C@]2(C)C2CC[C@]3(C)C(=CC(=O)O[C@H]3c3ccoc3)[C@@]21C (some centres not stated) with its measured normalized growth.
## Result 0.939

## Task Report normalized growth for C=C(CC)C(=O)c1ccc(OCC(=O)O)c(Cl)c1Cl
## Result 0.951

## Task Give recorded normalized growth. COc1ccc(OC)c(S(=O)(=O)N2CCc3cc(OC)c(OC)cc3C2C)c1 (configuration not stated)
## Result 0.998

---

- Procedure Details: chemical genetic growth profiling, strain panel (AID 1159580);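 further: tested at 20 µM; growth read once vehicle control cultures reached saturation at 30 °C; 1 = growth at the plate median or of vehicle wells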
- Measurement Setup: S. cerevisiae deletion strains, growth OD, locus YGL173C, strain kem1
In all, about 5,500 compounds went through this assay and about 2,000 (36%) were called active. Inconclusive results (about 18%) are left out. Rule as the data show it: active = normalized growth mostly below about 0.91 (no sharp cut-off); inconclusive = no clear call, values can overlap the other calls; inactive = mostly above about 0.92. The list shows a part of the results.
One label from this list, please: 1.0 (active), 0.0 (inactive)

Here are 6 molecules together with their reported answers.
O[N+]1=CC=CCC1=S.On1ccccc1=S.[Zn]    1.0
CC(C)(C)NC[C@@H](O)COc1nsnc1N1CCOCC1    0.0
COc1cc(OC)c2c(=O)c(-c3ccccc3)c(C)oc2c1OC    0.0
CC(=O)Nc1ccc(S(=O)(=O)c2ccc(NC(C)=O)cc2)cc1    0.0
Nc1ncnc2c1ncn2C1O[C@H](COP(=O)(O)O)[C@@H](O)[C@H]1O (stereo not given in full)    0.0
CCOP(=S)(OCC)SCn1c(=O)oc2cc(Cl)ccc21    0.0

## Task Assay result, entry CC(=O)O[C@@H]1CC2C(C)(C)C=CC(=O)[C@]2(C)C2CC[C@@]3(C)[C@H](c4ccoc4)OC(=O)C4OC43[C@@]21C (stereo not given in full) — outcome?
## Result 0.0

## Task Assay outcome for COC(=O)C[C@H]1C(C)(C)C(=O)[C@@H]2CC3=C4CC(=O)O[C@@H](c5ccoc5)[C@]4(C)CCC3[C@@]1(C)C2=O (stereo not given in full) : what was it?
## Result 0.0

## Task Dear all, I need the recorded test outcome for Nc1ccc(S(=O)(=O)Nc2ccccn2)cc1 , thank you.
## Result 0.0

## Task Assay result, entry CO[C@H]1/C=C/O[C@@]2(C)Oc3c(C)c(O)c4c(O)c(c(/C=N/N5CCN(C)CC5)c(O)c4c3C2=O)NC(=O)/C(C)=C\C=C\C(C)[C@H](O)[C@@H](C)[C@@H](O)[C@@H](C)[C@@H](OC(C)=O)[C@@H]1C (stereo not given in full) — outcome?
## Result 0.0

## Task Could you kindly confirm the outcome this assay logged for CC1(C)C(=O)C=C[C@@]2(C)C1=C(O)C(=O)[C@]1(C)C2CC[C@@]2(C)[C@H](c3ccoc3)C[C@H]3O[C@]321 (stereo not given in full) ?
## Result 1.0

## Task Status in this test for O=c1[nH]c(=O)n(C2C[C@@H](O)[C@@H](CO)O2)cc1F (stereo not given in full) ?
## Result 0.0

## Task Returns: the outcome recorded for NC(=NCCC[C@H](N)C(=O)O)NC(CCC(=O)O)C(=O)O (stereo not given in full) in this assay.
## Result 0.0

## Task Could you check what this test reported for O=[N+]([O-])c1cc([As](=O)(O)O)ccc1O ?
## Result 0.0

---

- Procedure Details: chemical genetic growth profiling, strain panel (AID 1159580);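 further: tested at 20 µM; growth read once vehicle control cultures reached saturation at 30 °C; 1 = growth at the plate median or of vehicle wells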
- Measurement Setup: S. cerevisiae deletion strains, growth OD, locus YDR052C, strain DBF4, hits give low values
Hit rate of the full screen: of about 5,500 compounds, about 2,000 (36%) were called active. Another 18% or so got no clear call; they are omitted. This is one part of the list.
Item-by-item account of normalized growth
Form field (numeric): enter value without unit.

Observe how each entry below is paired with its result.
C/C(=C\c1ccc2c(c1)OCO2)[N+](=O)[O-]    0.302
S=C(N/N=C\c1ccc(Cl)cc1)N/N=C\c1ccc(Cl)cc1    0.967
Cc1ccc(S(=O)(=O)CCSC2=CC(=O)CC(C)(C)S2)cc1    1

## Task Answer with reported normalized growth of CC(C)c1ccc(NC(=S)NC(=O)c2ccccc2)cc1
## Result 0.962

## Task // fetch normalized growth given entry O=c1c(Cl)c(-n2cccn2)cnn1-c1ccc(Cl)cc1Cl
## Result 0.93

## Task // Input: CCOc1ccc(/C=C(\C)[N+](=O)[O-])cc1OC . Output its normalized growth only.
## Result 0.984

## Task Indicate its recorded normalized growth; the compound in question is Cc1nn(Cc2ccc(C(=O)Sc3ccc(C(F)(F)F)cn3)o2)c(C)c1Br
## Result 0.97

## Task In one line, give reported normalized growth of the entry CC(=O)c1sc(SCCS(=O)(=O)c2ccc(C)cc2)c2c1CC(C)(C)CC2=O .
## Result 0.935

## Task For the compound CC(C)c1ccc(NCC(O)CSc2ccccc2)cc1 (configuration not stated) , give its reported normalized growth.
## Result 0.974

## Task Give reported normalized growth value for O=[N+]([O-])/C=C/c1ccc(F)cc1
## Result 0.0848

## Task Please report the measured normalized growth for CSc1ccc(/C=C(\C)[N+](=O)[O-])cc1
## Result 0.103

## Task Fill in normalized growth for record COc1ccc(C(=O)CSC2=NCCc3ccccc32)cc1
## Result 0.983

---

- Procedure Details: chemical genetic growth profiling, strain panel (AID 1159580);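 further: tested at 20 µM; growth read once vehicle control cultures reached saturation at 30 °C; 1 = growth at the plate median or of vehicle wells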
- Measurement Setup: S. cerevisiae deletion strains, growth OD, locus YBR171W, strain sec66
In all, about 5,500 compounds went through this assay and about 2,000 (36%) were called active. Another 18% or so got no clear call; they are omitted. No stated cut-off is given here; in the data, active means normalized growth mostly below about 0.91 (no sharp cut-off); inconclusive means no clear call, values can overlap the other calls; inactive means mostly above about 0.92. This is one part of the list.
Returns: one label drawn from active, inactive

Look over these answered cases.
NC[C@H](O)c1ccc(O)c(O)c1    inactive
Nc1ccc(S(=O)(=O)Nc2ccc(Cl)nn2)cc1    inactive
O=C1CCCC2C3CC(CN12)[C@@H]1CCCCN1C3 (some centres not stated)    inactive

## Task Per the assay record, what outcome was assigned to CC1(C)C(=O)C=C[C@@]2(C)C1=C(O)C(=O)[C@]1(C)C2CC[C@@]2(C)[C@H](c3ccoc3)C[C@H]3O[C@]321 (some centres not stated) ?
## Result inactive

## Task # outcome recorded in this test, key = CC(C)(C)NCC(O)c1ccccc1Cl (configuration not stated)
## Result inactive

## Task What call does the record list for CC(=O)NCCCCCC(=O)O ?
## Result inactive

## Task Which outcome was assigned to O=C(OC1Cc2c(O)cc(O)cc2OC1c1cc(O)c(O)c(O)c1-c1c(C2Oc3cc(O)cc(O)c3CC2OC(=O)c2cc(O)c(O)c(O)c2)cc(O)c(O)c1O)c1cc(O)c(O)c(O)c1 (configuration not stated) in this test?
## Result inactive

## Task Field: outcome | Entry: NCCCC[C@H](N[C@@H](CCc1ccccc1)C(=O)O)C(=O)N1CCC[C@H]1C(=O)O
## Result inactive

## Task What did this assay record as the result for N[C@@H](Cc1ccc(O)c(O)c1)C(=O)O ?
## Result inactive

## Task Check the results log: what was the call for O=[N+]([O-])c1ccc(O)c([N+](=O)[O-])c1 ?
## Result active

## Task // outcome(item) with item = Oc1c(Br)cc(Br)c2cccnc12
## Result active

## Task Please let me know the test result on file for CCCCC1=NC2(CCCC2)C(=O)N1Cc1ccc(-c2ccccc2-c2nn[nH]n2)cc1 .
## Result inactive

## Task Record lookup: outcome of this test for NC(=NCCC[C@H](N)C(=O)O)NC(CCC(=O)O)C(=O)O (some centres not stated) ?
## Result inactive

## Task What did this assay record as the result for O=C(O)C1=CCNCC1 ?
## Result inactive
